Below, each of the molecules is paired with its reported efflux ratio at 120 min, 10 µM value.
assay: Caco-2 bidirectional permeability and efflux ratio; type: in vitro ADME; settings: human, Caco-2; 10 µM, 120 minutes; read-out: Efflux ratio Papp(B-A)/ Papp(A-B)
QUANTITY KIND: efflux ratio at 120 min, 10 µM

• CCc1c(N2CCN(C(=O)c3ncnc(C)c3O)CC2)c(=O)n2nc(-c3cc4ccccc4s3)nc2n1CC(=O)Nc1ccc(C(F)(F)F)cc1Cl = 0.62
• CCc1c(N2CCN(C(=O)c3ncnc(C)c3O)CC2)c(=O)n2nc(-c3ccc4ccoc4c3)nc2n1CC(=O)Nc1ccc(C(F)(F)F)cc1Cl = 1.1
• CCc1c(N2CCN(C(=O)c3ncnc(C)c3O)CC2)c(=O)n2nc(C3=CCOCC3)nc2n1CC(=O)Nc1ccc(C(F)(F)F)cc1Cl [HRO761, reference compound] = 3.65

----------
assay: Metabolic stability in dog liver microsomes; type: in vitro ADME; conditions: dog liver microsomes 0.5 mg mL^-1, NADPH 1 mM, 0-60 min; read-out: Liver microsomal stability t1/2 (min) Dog
QUANTITY KIND: half-life (min)

* CCc1c(N2CCN(C(=O)c3ncnc(C)c3O)CC2)c(=O)n2nc(C3=CCOCC3)nc2n1CC(=O)Nc1ccc(C(F)(F)F)cc1Cl [HRO761, reference compound] | 175
* CCc1c(N2CCN(C(=O)c3ncnc(C)c3O)CC2)c(=O)n2nc(-c3ccc4occc4c3)nc2n1CC(=O)Nc1ccc(C(F)(F)F)cc1Cl | 318
* CCc1c(N2CCN(C(=O)c3ncnc(C)c3O)CC2)c(=O)n2nc(-c3ccc4c(c3)CCO4)nc2n1CC(=O)Nc1ccc(C(F)(F)F)cc1Cl | 200
* CCc1c(N2CCN(C(=O)c3ncnc(C)c3O)CC2)c(=O)n2nc(-c3ccc4ncsc4c3)nc2n1CC(=O)Nc1ccc(C(F)(F)F)cc1Cl | 182
* CCc1c(N2CCN(C(=O)c3ncnc(C)c3O)CC2)c(=O)n2nc(-c3cc4ccccc4s3)nc2n1CC(=O)Nc1ccc(C(F)(F)F)cc1Cl | 637

----------
assay: Pharmacokinetic test in mice after intragastric administration; type: in vivo; details: male, mouse, plasma; ICR mice, Oral (10 mg/kg); read-out: Area under curve AUC0-t
QUANTITY KIND: AUC(0-t) (µg·h/mL)

* CCc1c(N2CCN(C(=O)c3ncnc(C)c3O)CC2)c(=O)n2nc(-c3ccc4ccoc4c3)nc2n1CC(=O)Nc1ccc(C(F)(F)F)cc1Cl | 98.9
* CCc1c(N2CCN(C(=O)c3ncnc(C)c3O)CC2)c(=O)n2nc(-c3ccc4occc4c3)nc2n1CC(=O)Nc1ccc(S(F)(F)(F)(F)F)cc1 | 28.5
* CCc1c(N2CCN(C(=O)c3ncnc(C)c3O)CC2)c(=O)n2nc(-c3ccc4c(ccn4C)c3)nc2n1CC(=O)Nc1ccc(C(F)(F)F)cc1Cl | 24.3
* CCc1c(N2CCN(C(=O)c3ncnc(C)c3O)CC2)c(=O)n2nc(C3=CCCCCC3)nc2n1CC(=O)Nc1ccc(S(F)(F)(F)(F)F)cc1 | 66.6
* CCc1c(N2CCN(C(=O)c3ncnc(C)c3O)CC2)c(=O)n2nc(C3=CCOCC3)nc2n1CC(=O)Nc1ccc(C(F)(F)F)cc1Cl [HRO761, reference compound] | 15.6
* CCc1c(N2CCN(C(=O)c3ncnc(C)c3O)CC2)c(=O)n2nc(C3=CCCCCC3)nc2n1CC(=O)Nc1ccc(C(F)(F)F)cc1Cl | 39.7

----------
molecular target: recombinant human WRN (Homo sapiens); construct: purchased BPS 101264; experiment: Inhibition of WRN enzyme activity (ATPase), ADP-Glo Kinase Assay; type: biochemical; conditions: WRN protein 5 nM, Flap 0.1 nM, ATP 30 µM; read-out: IC50
Sequence (Q14191 whole entry): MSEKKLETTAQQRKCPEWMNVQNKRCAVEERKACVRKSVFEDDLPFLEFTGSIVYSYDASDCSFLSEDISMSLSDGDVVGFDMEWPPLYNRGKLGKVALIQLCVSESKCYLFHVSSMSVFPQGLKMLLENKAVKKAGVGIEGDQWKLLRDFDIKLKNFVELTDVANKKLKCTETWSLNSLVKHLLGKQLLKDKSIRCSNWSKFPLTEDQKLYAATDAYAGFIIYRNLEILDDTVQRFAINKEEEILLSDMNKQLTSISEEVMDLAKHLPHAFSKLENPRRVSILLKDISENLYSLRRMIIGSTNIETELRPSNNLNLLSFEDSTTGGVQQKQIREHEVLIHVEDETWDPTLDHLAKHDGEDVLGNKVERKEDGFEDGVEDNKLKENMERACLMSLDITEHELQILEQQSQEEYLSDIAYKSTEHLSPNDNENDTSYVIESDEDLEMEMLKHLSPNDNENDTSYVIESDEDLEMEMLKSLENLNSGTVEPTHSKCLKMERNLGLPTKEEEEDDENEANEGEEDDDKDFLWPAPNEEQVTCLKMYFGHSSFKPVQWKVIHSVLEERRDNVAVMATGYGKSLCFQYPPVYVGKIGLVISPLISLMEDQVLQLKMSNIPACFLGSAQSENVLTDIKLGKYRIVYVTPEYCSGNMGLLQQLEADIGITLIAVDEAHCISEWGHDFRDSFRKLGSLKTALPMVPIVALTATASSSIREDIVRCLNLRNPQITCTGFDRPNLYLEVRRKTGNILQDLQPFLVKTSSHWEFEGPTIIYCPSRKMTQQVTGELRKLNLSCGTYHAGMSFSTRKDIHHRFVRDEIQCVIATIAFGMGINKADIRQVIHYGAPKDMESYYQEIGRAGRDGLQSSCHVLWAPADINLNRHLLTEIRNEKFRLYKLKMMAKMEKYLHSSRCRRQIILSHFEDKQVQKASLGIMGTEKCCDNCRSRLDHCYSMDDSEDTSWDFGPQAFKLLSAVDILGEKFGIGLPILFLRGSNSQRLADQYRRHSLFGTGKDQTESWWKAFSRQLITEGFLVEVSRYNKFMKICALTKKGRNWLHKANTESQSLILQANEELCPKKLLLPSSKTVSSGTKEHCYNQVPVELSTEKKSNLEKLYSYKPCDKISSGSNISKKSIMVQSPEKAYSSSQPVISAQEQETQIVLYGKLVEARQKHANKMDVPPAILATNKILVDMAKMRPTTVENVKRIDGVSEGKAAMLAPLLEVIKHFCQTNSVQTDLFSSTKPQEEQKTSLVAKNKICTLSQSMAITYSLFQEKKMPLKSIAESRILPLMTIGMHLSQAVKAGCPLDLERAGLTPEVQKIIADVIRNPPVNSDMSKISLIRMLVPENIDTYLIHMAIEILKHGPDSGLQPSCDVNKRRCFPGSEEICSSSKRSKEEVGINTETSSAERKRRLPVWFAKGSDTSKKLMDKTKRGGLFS
pIC50: −log10 of the molar value.
QUANTITY KIND: pIC50

- CCc1c(N2CCN(C(=O)c3ncnc(C)c3O)CC2)c(=O)n2nc(-c3ccc4c(c3)CCO4)nc2n1CC(=O)Nc1ccc(S(F)(F)(F)(F)F)cc1C: 7.00 to 9.00
- Cc1ncnc(C(=O)N2CCN(c3c(C4CC4)n(CC(=O)Nc4ccc(C(F)(F)F)cc4Cl)c4nc(-c5ccc6c(c5)CCO6)nn4c3=O)CC2)c1O: 7.00 to 9.00
- CCc1c(N2CCN(C(=O)c3ncnc(C)c3O)CC2)c(=O)n2nc(C3=CCC4(CC3)CC4)nc2n1CC(=O)Nc1ccc(S(F)(F)(F)(F)F)cc1Cl: 7.00 to 9.00

----------
Measured Cmax accompanies every entry in the list below.
assay: Pharmacokinetic test in mice after intragastric administration; assay type: in vivo; conditions: male, mouse, plasma; ICR mice, Oral (10 mg/kg); read-out: Plasma concentration Cmax
QUANTITY KIND: Cmax (ng/mL)

• CCc1c(N2CCN(C(=O)c3ncnc(C)c3O)CC2)c(=O)n2nc(C3=CCCCCC3)nc2n1CC(=O)Nc1ccc(S(F)(F)(F)(F)F)cc1 = 18100
• Cc1ncnc(C(=O)N2CCN(c3c(C)n(CC(=O)Nc4ccc(C(F)(F)F)cc4Cl)c4nc(-c5ccc6c(c5)CCO6)nn4c3=O)CC2)c1O = 45000
• CCc1c(N2CCN(C(=O)c3ncnc(C)c3O)CC2)c(=O)n2nc(C3=CCCCCC3)nc2n1CC(=O)Nc1ccc(C(F)(F)F)cc1Cl = 15900
